Can you tell me average mice weight, tumor weight deducted for the items I'm about to list?
assay: Mice body weight in CT-26 WT tumor model (Example 2); format: in vivo, BALB/c female mice; conditions: Day 23; compounds 15 mg/kg, anti-m-PD-1 10 mg/kg
One number for each entry, in g.

Parameters: items (list). Returns: average mice weight, tumor weight deducted for each item.
1. NC(=O)c1nnc(OC2CCCNC2)c2cc(-c3cccc(F)c3)sc12 (stereo not shown) [Compound 6-1]
2. NC(=O)c1nnc(N[C@H]2CCCNC2)c2cc(-c3cccc(F)c3)sc12 [Compound 6]
3. NC(=O)c1nnc(CC2CCCNC2)c2cc(-c3cc(Cl)cc(Cl)c3)sc12 (stereo not shown) [Compound 6-3]
4. NC(=O)c1nnc(SC2CCCNC2)c2cc(-c3cccc(F)c3)sc12 (stereo not shown) [Compound 6-2]

Found:
1. 17.77
2. 17.63
3. 18.16
4. 18.04

###

test: Mice body weight in CT-26 WT tumor model (Example 2); assay type: in vivo, BALB/c female mice; details: Day 9; compounds 15 mg/kg tail vein once per day; anti-m-PD-1 10 mg/kg IP once every five days
readout: Average body weight (g)
Give bare numbers, in g.

NC(=O)c1nnc(N[C@H]2CCCNC2)c2cc(-c3cccc(F)c3)sc12 = 16.39

Parameters: items (list). Returns: Average body weight for each item.
1. NC(=O)c1nnc(SC2CCCNC2)c2cc(-c3cccc(F)c3)sc12 (stereo not shown)
2. NC(=O)c1nnc(OC2CCCNC2)c2cc(-c3cccc(F)c3)sc12 (stereo not shown)
3. NC(=O)c1nnc(CC2CCCNC2)c2cc(-c3cc(Cl)cc(Cl)c3)sc12 (stereo not shown)

Found:
1. 16.45
2. 16.29
3. 15.99

###

Assay: Mice body weight in CT-26 WT tumor model (Example 2)
Assay type: in vivo, BALB/c female mice
Details: Day 23; compounds 15 mg/kg tail vein once per day; anti-m-PD-1 10 mg/kg IP once every five days
Description: Mice were observed every day for their physical conditions and activities, and mice body weight and tumor volume were measured every Tuesday, Thursday and Sunday. The tumor volume (V) was calculated as (length×width^2)/2. At Day 23, mice were subject to euthanasia, from which tumors were collected, weighed and photographed. […] Tumor weight based tumor growth inhibition (TGI) and Zheng-Jun Jin's Q value were calculated.
readout: Average body weight (g)
One number for each entry, in g.

// below: answered compounds
NC(=O)c1nnc(CC2CCCNC2)c2cc(-c3cc(Cl)cc(Cl)c3)sc12 (stereo not shown) [Compound 6-3] = 20.06
NC(=O)c1nnc(OC2CCCNC2)c2cc(-c3cccc(F)c3)sc12 (stereo not shown) [Compound 6-1] = 19.31
NC(=O)c1nnc(N[C@H]2CCCNC2)c2cc(-c3cccc(F)c3)sc12 [Compound 6] = 18.98

Lookup: Reported Average body weight, compound NC(=O)c1nnc(SC2CCCNC2)c2cc(-c3cccc(F)c3)sc12 (stereo not shown) [Compound 6-2] : ____
Found: 19.63

###

experiment: Mice body weight in CT-26 WT tumor model (Example 2); format: in vivo, BALB/c female mice; conditions: Day 10; compounds 15 mg/kg tail vein once per day; anti-m-PD-1 10 mg/kg IP once every five days
readout: Average body weight (g)
Give bare numbers, in g.

NC(=O)c1nnc(N[C@H]2CCCNC2)c2cc(-c3cccc(F)c3)sc12 = 16.85
NC(=O)c1nnc(OC2CCCNC2)c2cc(-c3cccc(F)c3)sc12 (stereo not shown) = 16.75
NC(=O)c1nnc(CC2CCCNC2)c2cc(-c3cc(Cl)cc(Cl)c3)sc12 (stereo not shown) = 16.25

Now for another entry.
Lookup: Reported Average body weight, molecule NC(=O)c1nnc(SC2CCCNC2)c2cc(-c3cccc(F)c3)sc12 (stereo not shown) : ____
Found: 16.69
